- System: CCRF-CEM leukemia
- PROTOCOL_SUMMARY: NCI-60 one-dose screen, 48 h
- CONDITION_DESCRIPTION: 10 µM unless noted
This is part of a sample that, as a whole, favours compounds with a hit. Of some 83,000 tested, about 20% had one in any assay. Activity calls are given as the source filed them. Rule for the calls: active = growth percent below 10; inactive = the rest.
Outcomes: YES for active, NO for inactive

COMPOUND	CLASS_NAME
NC(=NCCCC1(c2ccccc2)CCCC1)Nc1ccc(Cl)cc1	YES
C#CCOc1ccc2ncnc(NCc3cccc(NC(=O)CCl)c3)c2c1	YES
CC1=CC(=NN=c2cc(C)n([O-])c(C)c2)C=C(C)[N+]1=O	NO
CCC#CC[C@H](O)C/C=C1/C(=O)C=C[C@@H]1C/C=C\CCCC(=O)OC	YES
O=C1c2cc3c(cc2-c2c1c1ccc(F)cc1c(=O)n2CCCNCCO)OCO3	YES
OC(c1cc2cc(Cl)c(Cl)cc2c2cc(C(F)(F)F)ccc12)C1CCCCN1 (stereo unspecified)	YES
CC(=O)OC[C@H]1O[C@H](OC(C)=O)[C@H](NC(=O)/C=C/CCl)[C@@H](OC(C)=O)[C@@H]1OC(C)=O	NO
Cn1cc(-c2nonc2-c2c[nH]c3ccccc23)c2cccnc21	NO
Cn1c(O)c(N=NC(=O)c2cc(-c3ccccc3)on2)c2ccccc21	NO
COc1ccc(NC2=C(Sc3nc(C)cc(C)n3)C(=O)N(Cc3ccccc3)C2=O)cc1Cl	NO
OCc1ccc(N2CCc3cccc(F)c3C2)cc1Cl	NO
Oc1cccc2ccc(N/N=C/c3cc(CN4CCOCC4)c(O)c4ncccc34)nc12	NO
NC(=NCCCOc1ccc(Cl)cc1)Nc1ccc(C(F)(F)F)cc1	YES
Oc1ccccc1-c1nnc(CNc2ccc(Cl)cc2)o1	NO
COc1ccc(-c2nc3cc(C(=O)Nc4cc(OC)c(OC)c(OC)c4)ccc3n2C2CCCCC2)cc1	NO
COC(=O)c1ccc(NC(=O)c2ccc(-c3cccc([N+](=O)[O-])c3)o2)cc1	NO
O=C1/C(=C/c2ccc3c(c2)OCO3)SC(=S)N1CCc1ccc(O)cc1	NO
COC[C@H](C)n1c(C2CCOCC2)nc2cnc3cc(-c4c(C)noc4C)c(OC)cc3c21	NO
COc1cccc2c1C(=O)c1c(O)c3c(c(O)c1C2=O)C[C@](O)(C(=O)CO)C[C@H]3O[C@@H]1C[C@@H](NC(=O)CCCN(C)C2(c3ccc(F)cc3)CC3CCC2C3)[C@H](O)[C@@H](C)O1 (stereo partly specified)	YES
O=c1oc2c(C(F)(F)F)cccc2cc1-c1csc(Nc2ccc(OCCF)cc2)n1	YES
NC(=O)c1cc(I)ccc1NC(=O)/C=C/c1ccccc1Cl	YES
O=C(/C=C/c1ccc(C(F)(F)F)cc1)Nc1ccc(C=C2c3ccccc3C(=O)c3ccccc32)cc1	NO
N#Cc1nnn(-c2ccc(S(N)(=O)=O)cc2)c1NCC(=O)c1ccccc1	NO
CNc1ccc(-c2cc(=O)oc3ccc(Cl)cc23)cc1	NO
O=C1Nc2c(ccc(Cl)c2Cl)/C1=C\c1ccc(C(F)(F)F)cc1	YES
COc1ccc(-c2nc3ccc(-c4nc5ccc(N6CCN(c7ccncc7)CC6)cc5[nH]4)cc3[nH]2)cc1OC	NO
COc1ccc(-n2nc(C)c3c(Oc4ccc(NC(=O)Nc5c(Cl)cccc5Cl)cc4)ncnc32)cc1	NO
COC(=O)c1ccc(Cn2cnc3c(N)ncnc32)cc1	NO
O=C1c2cc3c(cc2-c2c1c1ccc(Cl)cc1c(=O)n2CCCN1CCOCC1)OCO3	NO
CCOC(=O)c1c(CN2CCN(C)CC2)nc2ccc(Cl)cc2c1-c1ccccc1	NO
COC(=O)[C@@H]1CCCN1C(=O)[C@@H]1CCCN1C(=O)[C@H](Cc1ccccc1)NC(=S)Nc1cc(C(F)(F)F)cc(C(F)(F)F)c1	NO

Where these numbers come from: PubChem BioAssay (NCI)
